Kindly state inhibition for each of the entries shown.
Test: growth inhibition of non-replicating M. tuberculosis (AID 488890);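 note: plate controls were DMSO cells for no effect and high antibiotic wells for full effect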
Conditions: Mycobacterium tuberculosis non-replicating, at 25 µM, stronger effect = higher value
The whole screen tested about 320,000 compounds, of which about 1,300 (0.41%) were called active. Roughly 3% stayed inconclusive and do not appear here. Only a sample is shown. Potency and affinity values are given separately.
Answers are plain numbers, in %.

Worked set:
COMPOUND	inhibition, %
C=CCn1c(O)c(N=O)c2ccccc21	-1.03
O=c1ccnc(Sc2ncccc2[N+](=O)[O-])[nH]1	37.6
Cc1ccc(Sc2ncccc2[N+](=O)[O-])cc1	23.3

Count: 2. Required value per item: inhibition.
1. C/C(=N\OC(=O)c1c(-c2c(F)cccc2Cl)noc1C)c1nccs1
2. Cc1ccc(/C=N\Nc2cn[nH]c(=O)c2Cl)cc1

RESULT:
1: 4.04; 2: -3.74

Count: 3. Required value per item: inhibition.
1. Cc1cc(NC(=O)CSc2nnc(-c3ccc(S(=O)(=O)N4CCCC4)cc3)n2C)no1
2. CC(C)=N/N=C1\NC(=O)C(C)S1 (centres undefined)
3. c1ccc(OCCn2c(-c3ccco3)nc3ccccc32)cc1

RESULT:
1: -6.04; 2: 54; 3: 74.4

###

Assay: growth inhibition of non-replicating M. tuberculosis (AID 488890);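 note: plate controls were DMSO cells for no effect and high antibiotic wells for full effect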
Conditions: Mycobacterium tuberculosis non-replicating, at 25 µM, stronger effect = higher value
The campaign covered roughly 320,000 compounds. About 1,300 (0.41%) were called active. Inconclusive results (about 3%) are left out. Only a sample is shown. Measured potencies and affinities stand elsewhere.
Outcome: TRUE for inhibition of at least 30%; FALSE for anything lower.

Reference set, count: 4
COMPOUND	ASSIGNED CATEGORY
Cc1ccc(C(=O)CSc2nnc(-c3ccccc3)o2)cc1	TRUE
c1ccc(Cc2nc(-c3ccccn3)no2)cc1	FALSE
Cc1[nH]c2ccc(Br)cc2c(=O)c1CN1CCCCC1	FALSE
COC(=O)CCN1CCN(S(=O)(=O)c2ccccc2Br)CC1	FALSE

QUERY: Could you please find out whether CCCCC(O)(CCCC)C(=O)NNc1ccccc1 has inhibition that meets 30% or exceeds it?
RESULT: TRUE

QUERY: Could you please find out whether O=C(c1ccco1)N1CCN(C(=O)c2ccc(COc3ccc(Cl)cc3Cl)o2)CC1 has inhibition that meets 30% or exceeds it?
RESULT: FALSE

QUERY: Could you please find out whether COc1cccc(C(=O)CN(C(=O)c2ccc(Cl)cc2Cl)N2C(=O)c3ccccc3C2=O)c1 has inhibition that meets 30% or exceeds it?
RESULT: FALSE

QUERY: Could you please find out whether c1ccc(-c2noc(CC3CCCCC3)n2)cc1 has inhibition that meets 30% or exceeds it?
RESULT: TRUE

QUERY: Could you please find out whether O=C(O)c1ccc(CNCc2ccc(Cl)cc2)cc1 has inhibition that meets 30% or exceeds it?
RESULT: FALSE

QUERY: Could you please find out whether N#CCC(CNc1ncc(C(F)(F)F)cc1Cl)OC(=O)c1ccc(Cl)cc1 (stereo not drawn) has inhibition that meets 30% or exceeds it?
RESULT: FALSE

QUERY: Could you please find out whether Cc1cc(=O)oc2c3c(cc(OCC(=O)NCc4cccnc4)c12)OC(C)(C)CC3 has inhibition that meets 30% or exceeds it?
RESULT: FALSE

QUERY: Could you please find out whether c1cc2c3c(cccc3c1)NC(c1ccc3c(c1)OCO3)N2 has inhibition that meets 30% or exceeds it?
RESULT: FALSE

QUERY: Could you please find out whether O=C(O)c1ccccc1C(=O)NNc1ccc(Cl)cc1Cl has inhibition that meets 30% or exceeds it?
RESULT: FALSE

QUERY: Could you please find out whether Cn1c(C(F)(F)F)nc2c(=O)oc3ccccc3c21 has inhibition that meets 30% or exceeds it?
RESULT: TRUE

QUERY: Could you please find out whether COc1cc(NC(=O)CSc2nc(=O)n(CCN3CCOCC3)c3c2CCC3)cc(OC)c1 has inhibition that meets 30% or exceeds it?
RESULT: FALSE

QUERY: Could you please find out whether O=C(NNC(=O)C1CC1c1ccccc1)c1cccc([N+](=O)[O-])c1 (stereo not drawn) has inhibition that meets 30% or exceeds it?
RESULT: FALSE

QUERY: Could you please find out whether O=C(CSc1nnc(-c2ccc(O)cc2)o1)Nc1ccccc1 has inhibition that meets 30% or exceeds it?
RESULT: TRUE

QUERY: Could you please find out whether O=C(CCC(=O)N1CCN(c2ccccn2)CC1)c1cccs1 has inhibition that meets 30% or exceeds it?
RESULT: FALSE

QUERY: Could you please find out whether COCc1nnc(NC(=O)c2cccc(NC(=O)C(C)C)c2)s1 has inhibition that meets 30% or exceeds it?
RESULT: FALSE

QUERY: Could you please find out whether O=C(c1ccc2c(c1)OCO2)N1CCC2(CC1)Oc1ccc(F)cc1C(=O)C21CC(c2ccccc2)=NO1 (stereo not drawn) has inhibition that meets 30% or exceeds it?
RESULT: TRUE

QUERY: Could you please find out whether COc1ccccc1Cn1nnc2c(=O)[nH]c(C3CCN(C(=O)c4ccccc4Cl)CC3)nc21 has inhibition that meets 30% or exceeds it?
RESULT: TRUE

QUERY: Could you please find out whether O=C(NCC1CCCO1)NC12CC3CC(CC(C3)C1)C2 (stereo not drawn) has inhibition that meets 30% or exceeds it?
RESULT: FALSE

QUERY: Could you please find out whether NS(=O)(=O)c1ccc(NNC(=O)c2ccccc2C(=O)O)cc1 has inhibition that meets 30% or exceeds it?
RESULT: FALSE

###

Assay: growth inhibition of non-replicating M. tuberculosis (AID 488890);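 note: plate controls were DMSO cells for no effect and high antibiotic wells for full effect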
Conditions: Mycobacterium tuberculosis non-replicating, at 25 µM, stronger effect = higher value
The campaign covered roughly 320,000 compounds. About 1,300 (0.41%) were called active. Another 3% or so got no clear call; they are omitted. These entries were drawn from the full list. Potency and affinity values are given separately.
Outcome: YES for inhibition of at least 20%; NO for anything lower.

Reference set, count: 6
MOLECULE	ASSIGNED CATEGORY
COc1ccc(Br)cc1/C(C)=N/NC1=NCCN1	YES
CCOc1ccc(Br)cc1/C(C)=N\NC1=NCCN1	YES
CCCn1c(C(C)NC(=O)c2ccccc2)n[nH]c1=S (configuration not stated)	NO
Cc1cccc(C(=O)OCC(=O)c2c(C)[nH]c3ccccc23)c1O	NO
COc1ccc(C2=NOC(C(=O)N(C)Cc3ccccc3)C2)cc1 (configuration not stated)	YES
O=C(OCC(=O)N1CCCC1)c1cccc(Br)c1	YES

QUERY: Could you please find out whether CC(=O)Nc1ccc(-c2csc(NC(=O)CCNC(=O)c3ccco3)n2)cc1 has inhibition that meets 20% or exceeds it?
RESULT: NO

QUERY: Could you please find out whether COc1ccc(OC)c(S(=O)(=O)N2CCCC(C(=O)N3CCOCC3)C2)c1 (configuration not stated) has inhibition that meets 20% or exceeds it?
RESULT: NO

QUERY: Could you please find out whether COc1cccc(/C=N/N2CCN(c3ccccc3OC)CC2)c1 has inhibition that meets 20% or exceeds it?
RESULT: NO

QUERY: Could you please find out whether Cc1ccc2oc(=O)c(/C=C(\O)c3ccco3)nc2c1 has inhibition that meets 20% or exceeds it?
RESULT: NO

QUERY: Could you please find out whether CC1=NN(C(=O)c2cccc(Cn3nc(C)c([N+](=O)[O-])c3C)c2)C(O)(C(F)(F)F)C1 (configuration not stated) has inhibition that meets 20% or exceeds it?
RESULT: YES

QUERY: Could you please find out whether O=C(OCC(=O)N1CCCC1)c1cc([N+](=O)[O-])ccc1Cl has inhibition that meets 20% or exceeds it?
RESULT: YES

###

Kindly state inhibition for each of the entries shown.
Assay: growth inhibition of non-replicating M. tuberculosis (AID 488890);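 note: plate controls were DMSO cells for no effect and high antibiotic wells for full effect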
Details: Mycobacterium tuberculosis non-replicating, at 25 µM, stronger effect = higher value
Screen size: about 320,000 compounds; about 1,300 (0.41%) were called active. Inconclusive results (about 3%) are left out. A selection follows. Results with a measured potency or affinity are listed apart.
Give bare numbers, in %.

COMPOUND	inhibition [%]
COc1ccc(C(=O)CC(=O)c2ccccc2O)cc1OC	22.7
O=C(c1cc([N+](=O)[O-])ccc1N1CCCCC1)N1CCc2ccccc21	21
Cc1cc(C)c(S(=O)(=O)NCC(=O)NCc2ccco2)c(C)c1	0.05
CCOc1ccc(OCCC(=O)OCC(=O)N2CCN(S(=O)(=O)c3ccc(Cl)cc3)CC2)cc1	40.6
CN(C)CCOc1ccc2ccccc2c1	-16.7

Count: 5. Required value per item: inhibition.
1. CCN(CC)S(=O)(=O)c1cccc(-c2nnc(SCC(=O)NC)n2N)c1
2. O=C(CC(=O)c1ccccc1)Nc1ccc(Cl)cc1
3. Nc1ccc(C#Cc2ccc3c(=O)c4ccccc4oc3c2)cc1
4. COc1ccccc1NC(=O)COC(=O)CCc1ccc(S(=O)(=O)N2CCOCC2)cc1
5. CN(C)S(=O)(=O)c1cccc(-c2nnc(SCc3cc(Cl)cc4c3OCOC4)n2N)c1

RESULT:
1: -7.59; 2: 51.8; 3: 11.2; 4: 5.51; 5: 23.1

QUERY: Note inhibition for the compound shown: COc1ccc(CNC(=O)C(NC(C)=O)C(C)C)cc1OC (stereo unspecified)
RESULT: -1.56
